Reference for the values: patent US5807889A

Target: 5-HT1A receptors (Rattus norvegicus, UniProt P19327)
Sequence (P19327 1-422): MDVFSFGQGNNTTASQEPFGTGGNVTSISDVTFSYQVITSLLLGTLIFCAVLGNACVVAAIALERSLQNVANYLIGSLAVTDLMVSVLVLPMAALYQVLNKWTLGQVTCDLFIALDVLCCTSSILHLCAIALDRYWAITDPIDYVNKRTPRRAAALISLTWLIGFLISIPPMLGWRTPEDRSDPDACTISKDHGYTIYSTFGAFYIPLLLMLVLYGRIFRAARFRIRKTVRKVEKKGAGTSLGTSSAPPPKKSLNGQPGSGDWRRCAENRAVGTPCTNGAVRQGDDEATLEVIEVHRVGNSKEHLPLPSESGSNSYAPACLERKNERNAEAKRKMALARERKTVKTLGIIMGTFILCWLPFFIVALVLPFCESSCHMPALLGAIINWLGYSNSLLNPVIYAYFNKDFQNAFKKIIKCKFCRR
Test: Inhibition of 3H-8-OH-DPAT binding to serotonin 5-HT1A receptors in rat brain in vitro
Design: 5-HT1A receptors in membranes from rat brain minus cerebellum; from tissue; host or cells: brain minus cerebellum of male Wistar (Mol:Wist) rats, crude membranes; species or system rat (male Wistar)
Conditions: read-out: 3H 8-OH DPAT binding IC50; 1 nM 3H-8-OH-DPAT, rat brain minus cerebellum membranes, 37° C., 15 min

[
  {
    "molecule": "CCCN(CCC)CC1CCc2ccc(NC(C)=O)cc21 (single isomer, unassigned; (+)) [Compound 8b]",
    "systemUnderTest": "5-HT1A receptors (Rattus norvegicus, UniProt P19327)",
    "quantityUnit": "pM",
    "IC50": 640
  }
]
